Each recorded value in this set is attributed to ChEMBL document CHEMBL1138574.

# Tested on: A549
# ASSAY OVERVIEW: Antitumor activity against human A549 cells assessed as cell growth at 10 uM after 48 hrs by sulforhodamine B assay
# Assay type: functional
# PARTICULARS: A549, 48 h, read-out: Activity
TEST READOUT: growth at 10 µM (%)

INSERT INTO results (smiles_code, obs_value) VALUES
  ('CN1C/C(=C\c2ccc(Cl)cc2)C(=O)[C@]2(C1)[C@@H](c1ccc(Cl)cc1)CN(C)[C@@]21C(=O)N(C)c2ccccc21', 70),
  ('COc1ccc(/C=C2\CN(C)C[C@@]3(C2=O)[C@@H](c2ccccc2)CN(C)[C@@]32C(=O)Nc3ccccc32)cc1', 44.4),
  ('CN1C/C(=C\c2ccc(-c3cccs3)cc2)C(=O)[C@]2(C1)[C@@H](c1ccc(-c3cccs3)cc1)CN(C)[C@@]21C(=O)N(C)c2ccccc21', 58),
  ('CN1C/C(=C\c2ccc(Cl)cc2)C(=O)[C@]2(C1)[C@@H](c1ccc(Cl)cc1)CN(C)[C@@]21C(=O)Nc2ccccc21', 62.4);

----------
# Test system: NCI-H460
# ASSAY OVERVIEW: Antitumor activity against human NCI-H460 cells assessed as cell growth at 10 uM after 48 hrs by sulforhodamine B assay
# Type: functional
# PARTICULARS: NCI-H460, 48 h, read-out: Activity
TEST READOUT: growth at 10 µM (%)

INSERT INTO measurements (smiles_code, measurement_units, obs_value) VALUES
  ('CN1C/C(=C\c2ccc(Cl)cc2)C(=O)[C@]2(C1)[C@@H](c1ccc(Cl)cc1)CN(C)[C@@]21C(=O)Nc2ccccc21', '%', 66.7),
  ('CN1C/C(=C\c2ccc(Cl)cc2)C(=O)[C@]2(C1)[C@@H](c1ccc(Cl)cc1)CN(C)[C@@]21C(=O)N(C)c2ccccc21', '%', 71.5),
  ('COc1ccc(/C=C2\CN(C)C[C@@]3(C2=O)[C@@H](c2ccccc2)CN(C)[C@@]32C(=O)Nc3ccccc32)cc1', '%', 52.3),
  ('CN1C/C(=C\c2ccc(-c3cccs3)cc2)C(=O)[C@]2(C1)[C@@H](c1ccc(-c3cccs3)cc1)CN(C)[C@@]21C(=O)N(C)c2ccccc21', '%', 52.1);

----------
# Test system: NCI-H322M
# ASSAY OVERVIEW: Antitumor activity against human NCI-H322M cells assessed as cell growth at 10 uM after 48 hrs by sulforhodamine B assay
# Format: functional
# PARTICULARS: read-out: Activity
TEST READOUT: growth at 10 µM (%)

INSERT INTO results (smiles_code, measurement_units, obs_value) VALUES
  ('CN1C/C(=C\c2ccc(Cl)cc2)C(=O)[C@]2(C1)[C@@H](c1ccc(Cl)cc1)CN(C)[C@@]21C(=O)Nc2ccccc21', '%', 68.7),
  ('CN1C/C(=C\c2ccc(Cl)cc2)C(=O)[C@]2(C1)[C@@H](c1ccc(Cl)cc1)CN(C)[C@@]21C(=O)N(C)c2ccccc21', '%', 79.1),
  ('COc1ccc(/C=C2\CN(C)C[C@@]3(C2=O)[C@@H](c2ccccc2)CN(C)[C@@]32C(=O)Nc3ccccc32)cc1', '%', 79.7),
  ('CN1C/C(=C\c2ccc(-c3cccs3)cc2)C(=O)[C@]2(C1)[C@@H](c1ccc(-c3cccs3)cc1)CN(C)[C@@]21C(=O)N(C)c2ccccc21', '%', 75);

----------
# Tested on: M14
# ASSAY OVERVIEW: Antitumor activity against human M14 cells assessed as cell growth at 10 uM after 48 hrs by sulforhodamine B assay
# Format: functional
# PARTICULARS: M14, 48 h, read-out: Activity
Entries and their growth at 10 µM values follow.
TEST READOUT: growth at 10 µM

INSERT INTO measurements (smiles_code, test_readout, obs_value) VALUES
  ('COc1ccc(/C=C2\CN(C)C[C@@]3(C2=O)[C@@H](c2ccccc2)CN(C)[C@@]32C(=O)Nc3ccccc32)cc1', 'growth at 10 µM', '55.6%'),
  ('CN1C/C(=C\c2ccc(Cl)cc2)C(=O)[C@]2(C1)[C@@H](c1ccc(Cl)cc1)CN(C)[C@@]21C(=O)Nc2ccccc21', 'growth at 10 µM', '78.3%'),
  ('CN1C/C(=C\c2ccc(-c3cccs3)cc2)C(=O)[C@]2(C1)[C@@H](c1ccc(-c3cccs3)cc1)CN(C)[C@@]21C(=O)N(C)c2ccccc21', 'growth at 10 µM', '58.5%'),
  ('CN1C/C(=C\c2ccc(Cl)cc2)C(=O)[C@]2(C1)[C@@H](c1ccc(Cl)cc1)CN(C)[C@@]21C(=O)N(C)c2ccccc21', 'growth at 10 µM', '77.8%');

----------
# Test system: PC-3
# ASSAY OVERVIEW: Antitumor activity against human PC3 cells assessed as cell growth at 10 uM after 48 hrs by sulforhodamine B assay
# Format: functional
# PARTICULARS: PC-3, 48 h, read-out: Activity
TEST READOUT: growth at 10 µM

INSERT INTO measurements (smiles_code, obs_value) VALUES
  ('CN1C/C(=C\c2ccc(Cl)cc2)C(=O)[C@]2(C1)[C@@H](c1ccc(Cl)cc1)CN(C)[C@@]21C(=O)Nc2ccccc21', '24.9%'),
  ('CN1C/C(=C\c2ccc(-c3cccs3)cc2)C(=O)[C@]2(C1)[C@@H](c1ccc(-c3cccs3)cc1)CN(C)[C@@]21C(=O)N(C)c2ccccc21', '17.8%'),
  ('COc1ccc(/C=C2\CN(C)C[C@@]3(C2=O)[C@@H](c2ccccc2)CN(C)[C@@]32C(=O)Nc3ccccc32)cc1', '21%'),
  ('CN1C/C(=C\c2ccc(Cl)cc2)C(=O)[C@]2(C1)[C@@H](c1ccc(Cl)cc1)CN(C)[C@@]21C(=O)N(C)c2ccccc21', '32.5%');

----------
Entries and their growth at 10 µM values follow.
# Tested on: IGROV-1
# ASSAY OVERVIEW: Antitumor activity against human IGROV1 cells assessed as cell growth at 10 uM after 48 hrs by sulforhodamine B assay
# Type: functional
# PARTICULARS: IGROV-1, 48 h, read-out: Activity
TEST READOUT: growth at 10 µM (%)

INSERT INTO results (smiles_code, obs_value) VALUES
  ('CN1C/C(=C\c2ccc(Cl)cc2)C(=O)[C@]2(C1)[C@@H](c1ccc(Cl)cc1)CN(C)[C@@]21C(=O)Nc2ccccc21', 81.8),
  ('CN1C/C(=C\c2ccc(-c3cccs3)cc2)C(=O)[C@]2(C1)[C@@H](c1ccc(-c3cccs3)cc1)CN(C)[C@@]21C(=O)N(C)c2ccccc21', 81.4),
  ('CN1C/C(=C\c2ccc(Cl)cc2)C(=O)[C@]2(C1)[C@@H](c1ccc(Cl)cc1)CN(C)[C@@]21C(=O)N(C)c2ccccc21', 92.1),
  ('COc1ccc(/C=C2\CN(C)C[C@@]3(C2=O)[C@@H](c2ccccc2)CN(C)[C@@]32C(=O)Nc3ccccc32)cc1', 79.4);

----------
# Test system: Rattus norvegicus
# ASSAY OVERVIEW: Antiinflammatory activity in Wister albino rat assessed as inhibition of carrageenan-induced paw oedema at 50 mg/kg, ip administered 1 hr before carrageenan challenge measured after 4 hrs of induction of inflammation relative to indomethacin
# Assay type: functional
# PARTICULARS: route intraperitoneal
TEST READOUT: inhibition in vivo at 50 mg/kg

INSERT INTO measurements (smiles_code, test_readout, obs_value) VALUES
  ('CN1C/C(=C\c2ccc(Br)cc2)C(=O)[C@]2(C1)[C@@H](c1ccc(Br)cc1)CN(C)[C@@]21C(=O)Nc2ccccc21', 'inhibition in vivo at 50 mg/kg', '118%'),
  ('CN1C/C(=C\c2ccc(Cl)cc2)C(=O)[C@]2(C1)[C@@H](c1ccc(Cl)cc1)CN(C)[C@@]21C(=O)N(C)c2ccccc21', 'inhibition in vivo at 50 mg/kg', '80.9%'),
  ('CN1C/C(=C\c2ccc(F)cc2)C(=O)[C@]2(C1)[C@@H](c1ccc(F)cc1)CN(C)[C@@]21C(=O)N(C)c2ccccc21', 'inhibition in vivo at 50 mg/kg', '83.5%'),
  ('CN1C/C(=C\c2ccccc2)C(=O)[C@]2(C1)[C@@H](c1ccccc1)CN(C)[C@@]21C(=O)N(C)c2ccccc21', 'inhibition in vivo at 50 mg/kg', '122%'),
  ('COc1ccc(/C=C2\CN(C)C[C@@]3(C2=O)[C@@H](c2ccccc2)CN(C)[C@@]32C(=O)Nc3ccccc32)cc1', 'inhibition in vivo at 50 mg/kg', '139%');

----------
# System: Rattus norvegicus
# ASSAY OVERVIEW: Antiinflammatory activity in Wister albino rat assessed as inhibition of carrageenan-induced paw oedema at 50 mg/kg, ip administered 1 hr before carrageenan challenge measured after 4 hrs of induction of inflammation relative to control
# Assay type: functional
# PARTICULARS: route intraperitoneal
TEST READOUT: inhibition in vivo at 50 mg/kg (%)

INSERT INTO results (smiles_code, obs_value) VALUES
  ('CN1C/C(=C\c2ccc(-c3cccs3)cc2)C(=O)[C@]2(C1)[C@@H](c1ccc(-c3cccs3)cc1)CN(C)[C@@]21C(=O)N(C)c2ccccc21', 69.8),
  ('CN1C/C(=C\c2ccc(-c3cccs3)cc2)C(=O)[C@]2(C1)[C@@H](c1ccc(-c3cccs3)cc1)CN(C)[C@@]21C(=O)Nc2ccccc21', 71.4),
  ('CN1C/C(=C\c2ccccc2)C(=O)[C@]2(C1)[C@@H](c1ccccc1)CN(C)[C@@]21C(=O)N(C)c2ccccc21', 68.8),
  ('Cc1ccc(/C=C2\CN(C)C[C@@]3(C2=O)[C@@H](c2ccc(C)cc2)CN(C)[C@@]32C(=O)N(C)c3ccccc32)cc1', 68.8);
